- Assayed System: T1, human prostate specific membrane antigen (PSMA), full-length, on cells (human, UniProt Q04609 1-750)
- T1 construct: also called huPSMA; human PSMA
- T1 sequence (Q04609 whole entry): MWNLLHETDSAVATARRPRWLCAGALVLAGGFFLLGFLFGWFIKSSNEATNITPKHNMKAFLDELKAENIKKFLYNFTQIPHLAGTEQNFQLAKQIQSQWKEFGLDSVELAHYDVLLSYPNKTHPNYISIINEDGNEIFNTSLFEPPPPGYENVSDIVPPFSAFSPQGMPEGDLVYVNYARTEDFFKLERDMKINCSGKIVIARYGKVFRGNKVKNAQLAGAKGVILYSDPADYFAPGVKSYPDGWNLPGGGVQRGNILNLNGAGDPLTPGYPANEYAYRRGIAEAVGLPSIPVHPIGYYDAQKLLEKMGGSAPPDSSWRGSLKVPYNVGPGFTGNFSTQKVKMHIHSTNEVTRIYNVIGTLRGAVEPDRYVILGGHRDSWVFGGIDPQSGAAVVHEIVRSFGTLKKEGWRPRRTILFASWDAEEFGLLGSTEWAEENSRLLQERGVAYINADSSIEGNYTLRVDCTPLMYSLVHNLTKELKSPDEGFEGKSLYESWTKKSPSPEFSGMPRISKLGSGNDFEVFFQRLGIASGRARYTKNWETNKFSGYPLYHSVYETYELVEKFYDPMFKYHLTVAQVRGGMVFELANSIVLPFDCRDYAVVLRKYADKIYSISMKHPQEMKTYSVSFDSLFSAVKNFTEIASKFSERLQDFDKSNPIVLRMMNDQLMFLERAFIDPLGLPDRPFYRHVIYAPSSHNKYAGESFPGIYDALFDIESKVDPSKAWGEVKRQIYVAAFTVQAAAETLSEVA
- Assay Explanation: FMAT direct cell binding, LNCap cells
Please respond with reported pEC50 for every item in the list.
Numbers only, as −log10 of the molar value.

{"Binder": "single VH domain antibody 1.16 (VHH, Human single VH domain antibody (Humabody)) VHH: EVQLLESGGGLVQPGGSLRLSCAASGFSFSSYALSWVRQAPGKGLEWVSSIGENNHTTDYADTVKGRFTISRDNSKNTLYLQMNSLRVEDTAVYYCVKDGVHWGQGTLVTVSS", "Measure Name": "pEC50", "Measured Result": 10.12}
{"Binder": "single VH domain antibody 1.10 (VHH, Human single VH domain antibody (Humabody)) VHH: EVQLLESGGGLVQPGGSLRLSCAASGFSFSSYALSWVRQAPGKGLEWVSSIGENNATTDYADFVKGRFTISRDNSKNTLYLQMNSLRVEDTAVYYCVKDGVHWGQGTLVTVSS", "Measure Name": "pEC50", "Measured Result": 9.88}
{"Binder": "single VH domain antibody 2.17 (VHH, Human single VH domain antibody (Humabody); C-terminal His tag, residues not tied) VHH: EVQLVESGGGVVQPGRSLRLSCAASGFSFSGYGMHWVRQAPGKGLEWVAYISYDASNKYYADNVKGRFTISRDNSKNTLYLQMNSLRAEDTAVYYCAKDPAWGLRLGESSSYDFDIWGQGTMVTVSS", "Measure Name": "pEC50", "Measured Result": 10.95}

Next, consider the following binder.
Which pEC50 value is on record for single VH domain antibody 2.22 (VHH, Human single VH domain antibody (Humabody); C-terminal His tag, residues not tied) VHH: EVQLVESGGGVVQPGRSLRLSCAASGFSFSGYGTHWVRQAPGKGLEWVAYISYDGSNKYYAAPVKGRFTISRDNSKNTLYLQMNSLRAEDTAVYYCAKDAAWGLRLGESSSYDFDIWGQGTMVTVSS ?
9.82
